Catalogue of compounds with associated pKi
- MEASUREMENT TARGET: Cannabinoid receptor 1 (Homo sapiens)
- Sequence (P21554 whole entry): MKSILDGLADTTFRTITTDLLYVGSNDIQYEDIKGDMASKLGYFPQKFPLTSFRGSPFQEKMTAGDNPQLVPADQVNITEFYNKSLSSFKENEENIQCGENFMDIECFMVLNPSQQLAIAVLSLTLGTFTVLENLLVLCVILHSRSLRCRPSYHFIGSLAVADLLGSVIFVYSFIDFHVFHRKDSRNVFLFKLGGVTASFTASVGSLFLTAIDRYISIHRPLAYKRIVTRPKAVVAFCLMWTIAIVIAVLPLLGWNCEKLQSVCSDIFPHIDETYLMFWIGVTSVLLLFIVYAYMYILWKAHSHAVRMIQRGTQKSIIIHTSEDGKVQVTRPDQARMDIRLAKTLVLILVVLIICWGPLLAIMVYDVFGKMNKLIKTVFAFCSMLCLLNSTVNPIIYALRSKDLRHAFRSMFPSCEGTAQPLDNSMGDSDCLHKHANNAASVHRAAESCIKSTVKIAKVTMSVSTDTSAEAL
pKi: −log10 of the molar value.
OBSERVATION TYPE: pKi

1) Cc1cc(O)c2c(c1)OC1=C(CC[C@@H](C)C1)C2(C)C: < 5.00
2) CCc1cc2c(cc1O)OC(C)(C)C1=C2C[C@H](C)CC1: < 5.00
3) C[C@@H]1CCC2=C(C1)Oc1cc(O)ccc1C2(C)C: < 5.00
4) Cc1c(O)ccc2c1OC1=C(CC[C@@H](C)C1)C2(C)C: < 5.00
5) CCCCCc1cc(O)c2c(c1)OC1=C(CC[C@@H](C)C1)C2(C)C: 5.96
6) Cc1cc(O)c2c(c1)OC(C)(C)C1=C2C[C@H](C)CC1: 6.00
7) C[C@@H]1CCC2=C(C1)c1ccc(O)cc1OC2(C)C: < 5.00
8) CCCCCc1cc(O)c2c(c1)OC1=C(CC[C@H](C)C1)C2(C)C: 5.68
9) Cc1c(O)ccc2c1OC(C)(C)C1=C2C[C@H](C)CC1: < 5.00
10) CCc1cc2c(cc1O)OC1=C(CC[C@@H](C)C1)C2(C)C: < 5.00

----------
- MEASUREMENT TARGET: Cannabinoid receptor 2 (Homo sapiens)
- Sequence (P34972 whole entry): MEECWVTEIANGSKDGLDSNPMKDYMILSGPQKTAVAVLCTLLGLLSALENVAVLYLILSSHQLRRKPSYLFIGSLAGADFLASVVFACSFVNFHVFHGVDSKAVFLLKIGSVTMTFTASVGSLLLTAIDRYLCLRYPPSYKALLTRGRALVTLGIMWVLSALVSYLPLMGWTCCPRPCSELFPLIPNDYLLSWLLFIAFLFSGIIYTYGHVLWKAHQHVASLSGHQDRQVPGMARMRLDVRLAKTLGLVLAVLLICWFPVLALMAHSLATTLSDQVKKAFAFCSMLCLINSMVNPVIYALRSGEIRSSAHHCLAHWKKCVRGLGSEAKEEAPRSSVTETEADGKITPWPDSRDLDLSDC
pKi: −log10 of the molar value.
OBSERVATION TYPE: pKi

1) CCCCCc1cc(O)c2c(c1)OC1=C(CC[C@@H](C)C1)C2(C)C: 6.33
2) C[C@@H]1CCC2=C(C1)Oc1cc(O)ccc1C2(C)C: 5.38
3) Cc1c(O)ccc2c1OC1=C(CC[C@@H](C)C1)C2(C)C: 6.00
4) CCc1cc2c(cc1O)OC1=C(CC[C@@H](C)C1)C2(C)C: 6.29
5) Cc1cc(O)c2c(c1)OC(C)(C)C1=C2C[C@H](C)CC1: 6.18
6) CCCCCc1cc(O)c2c(c1)OC1=C(CC[C@H](C)C1)C2(C)C: 6.74

----------
- MEASUREMENT TARGET: UniProt P34972
- PROTOCOL DETAILS: Partial agonist activity at human cannabinoid CB2 receptor expressed in CHO-K1 cells assessed as [S35]GTPgammaS binding by scintillation counting relative to vehicle treated control
- Format: functional, cell-based
OBSERVATION TYPE: Emax

1. CCCCCc1cc(O)c2c(c1)OC(C)(C)C1=C2C[C@H](C)CC1: 133%
2. CCCCCc1cc(O)c2c(c1)OC(C)(C)C1=C2C[C@@H](C)CC1: 146%
3. CCCCCc1cc(O)c2c(c1)OC1=C(CC[C@H](C)C1)C2(C)C: 167%
4. CCCCCc1cc(O)c2c(c1)OC1=C(CC[C@@H](C)C1)C2(C)C: 152%

----------
- MEASUREMENT TARGET: Cannabinoid receptor 2 (Homo sapiens)
- PROTOCOL DETAILS: Partial agonist activity at human cannabinoid CB2 receptor expressed in CHO-K1 cells assessed as [S35]GTPgammaS binding by scintillation counting
pEC50: −log10 of the molar value.
OBSERVATION TYPE: pEC50

1. CCCCCc1cc(O)c2c(c1)OC1=C(CC[C@@H](C)C1)C2(C)C: 6.03
2. CCCCCc1cc(O)c2c(c1)OC1=C(CC[C@H](C)C1)C2(C)C: 6.09
